Reference for the values: patent US20240400708A1

# measurement-target: feline FcRn complex (FcRn-α subunit and β-microglobulin), biotin labeled (feline)
# experiment-description: SPR, pH 6
pKd: −log10 of the molar value.
Reported pKd by item:

| binder | pKd |
| --- | --- |
| feline IgG1a S254G (antibody, part only; not given: Variable domains, not shown: another chain or arm of the molecule) constant: ASTTAPSVFPLAPSCGTTSGATVALACLVLGYFPEPVTVSWNSGALTSGVHTFPAVLQASGLYSLSSMVTVPSSRWLSDTFTCNVAHPPSNTKVDKTVRKTDHPPGPKPCDCPKCPPPEMLGGPSIFIFPPKPKDTLSIGRTPEVTCLVVDLGPDDSDVQITWFVDNTQVYTAKTSPREEQFNSTYRVVSVLPILHQDWLKGKEFKCKVNSKSLPSPIERTISKAKGQPHEPQVYVLPPAQEELSRNKVSVTCLIKSFHPPDIAVEWEITGQPEPENNYRTTPPQLDSDGTYFVYSKLSVDRSHWQRGNTYTCSVSHEALHSHHTQKSLTQSPGK | 7.19 |
| feline IgG1a T256A (antibody, part only; not given: Variable domains, not shown: another chain or arm of the molecule) constant: ASTTAPSVFPLAPSCGTTSGATVALACLVLGYFPEPVTVSWNSGALTSGVHTFPAVLQASGLYSLSSMVTVPSSRWLSDTFTCNVAHPPSNTKVDKTVRKTDHPPGPKPCDCPKCPPPEMLGGPSIFIFPPKPKDTLSISRAPEVTCLVVDLGPDDSDVQITWFVDNTQVYTAKTSPREEQFNSTYRVVSVLPILHQDWLKGKEFKCKVNSKSLPSPIERTISKAKGQPHEPQVYVLPPAQEELSRNKVSVTCLIKSFHPPDIAVEWEITGQPEPENNYRTTPPQLDSDGTYFVYSKLSVDRSHWQRGNTYTCSVSHEALHSHHTQKSLTQSPGK | 7.39 |
